system: SK-MEL-2 melanoma; test: NCI tumour cell line growth inhibition, 48 h
property-name: TGI

Here is how some compounds turned out for TGI.
# compound, TGI
rows = [
    ("Fc1cc(C2=Nn3c(nnc3-c3cc(F)c(Cl)cc3Cl)SC2)c(Cl)cc1Cl", "> 100 µM"),
    ("O=C(O)c1cc(C(=O)C(=O)c2cc(C(=O)O)c(O)c3ccccc23)c2ccccc2c1O", "> 100 µM"),
    ("COc1c(O)cc2c(c1CC=C(C)C)OC(=O)c1c(cc(O)c(CC=C(C)C)c1O)O2", "8.58 µM"),
    ("CC12OC(C(=O)C13CC3)C1C(=O)c3cccc(O)c3C(=O)C12 (stereo not given)", "> 100 µM"),
    ("NC(=S)N/N=C/c1cn(CCCl)c2ccccc12", "> 100 µM"),
]

Quick one: give me TGI for each item below, same order please.
1. COc1cc(CN(C)N2C(=O)c3cccc4cc([N+](=O)[O-])cc(c34)C2=O)cc(OC)c1OC
2. Cc1cn2c(/C=N/NC3=NCCN3)c(-c3ccc(Cl)c([N+](=O)[O-])c3)nc2s1
3. COc1cc(Br)cc2c1O[C@H]1C(=O)CC3CC21CCN3C (stereo not given in full)

### Response
1. > 100 µM
2. 1.81 µM
3. > 100 µM

Working through the 2 compounds below one at a time, give TGI for each.
1. Cc1cc2c(cc1C)[n+](=O)c(C(=O)CC(=O)C(=O)Nc1ccccc1C)c(C)n2[O-]
2. O=C1C2=C(c3ccccc31)C(c1ccccc1Cl)NC(=S)N2 (stereo not given)

### Response
1: > 100 µM; 2: > 100 µM
